# Test system: MOLT-4
# assayName: NCI tumour cell line growth inhibition, 48 h
Activity calls are given as the source filed them. No stated cut-off is given here; in the data, active = GI50 up to about 1.1 µM and inactive = higher.
Your reply should match one of these outcome classes. yes (active), no (inactive)

| compound | labelValue |
| --- | --- |
| C=CCC1(O)C(=O)OC2C(O)COC21O (centres undefined) | no |

What is the recorded call for this compound in the test? C/C(=N\NC(=S)N1CCN(c2ccccn2)CC1)c1ccccn1 yes

Repeat with COc1ccc(-c2nc3ncccn3c2-c2ccc([S+](C)[O-])cc2)cc1 (centres undefined) no

Consider next the compound C[C@@H](NC(=O)OC1C=CC2(CC1)C(=O)N(C)c1ccccc12)c1cccc2ccccc12 (some centres undefined) in the same way. no

====

# Tested on: M14
# assayName: NCI tumour cell line growth inhibition, 48 h
Activity calls are given as the source filed them. Rule as the data show it: active = GI50 up to about 1.1 µM and inactive = higher.
measuredMetric: GI50

See these solved cases before continuing.
| compound | GI50 |
| --- | --- |
| CC12CCC(=O)N1c1ccc([N+](=O)[O-])cc1N2 (stereo unspecified) | > 100 µM (inactive) |
| O=C(c1ccc(-c2ccccc2)cc1)N(Cc1cccnc1)C(=S)N(Cc1cccnc1)C(=O)c1ccc(-c2ccccc2)cc1 | 81.3 µM (inactive) |
| CC(C)(C)C(=O)Nc1ccccc1Br | > 100 µM (inactive) |

List reported GI50 for each of these compounds:
1. CC(C)OP(=O)(OC(C)C)/C(I)=N/Nc1ccc([N+](=O)[O-])cc1
2. CCc1cc2c(c3[nH]ccc13)[C@@H](C)C[C@H]2C
3. O=C(O)CCCCn1cnc2c(S)ncnc21

> 100 µM (inactive)
17.2 µM (inactive)
> 100 µM (inactive)

====

Would you kindly list GI50 for each of these compounds?
# Tested on: NCI-H226
# assayName: NCI tumour cell line growth inhibition, 48 h
Calls of active or inactive are those of the source. Rule as the data show it: active = GI50 up to about 1.1 µM and inactive = higher.

Reference set, count: 5
| compound | GI50 |
| --- | --- |
| CCCC(CCC(N)=O)(CCC(N)=O)[N+](=O)[O-] | > 100 µM (inactive) |
| CSc1ccc2c(cc1=O)C(NC(=O)c1ccc(OC(C)=O)cc1)CCc1cc(O)c(O)c(O)c1-2 (stereo not given) | 20.9 µM (inactive) |
| CN(CCCNC(=O)c1cn(C)c2c1Cc1ccccc1-2)CCCNC(=O)c1cn(C)c2c1Cc1ccccc1-2 | 17.2 µM (inactive) |
| O=C1CCN2C(=O)CCN12 | > 100 µM (inactive) |
| COC(=O)NC(=O)c1cn(CCCOC(=O)CCCCCCCCC(=O)OCCCn2cc(C(=O)NC(=O)OC)c(=O)[nH]c2=O)c(=O)[nH]c1=O | > 100 µM (inactive) |

// each listed compound needs a value for GI50
1. COc1cccc(-c2cc(O)c3cc(N4CCCC4)ccc3n2)c1
2. C[C@@H](NC(=O)OC1C=CC2(CC1)C(=O)N(C)c1ccccc12)c1cccc2ccccc12 (stereo not given in full)
3. Cc1ccccc1OC(C)C(=O)NN1C(=O)CSC1c1ccccc1 (stereo not given)

< 0.001 µM (active)
21.8 µM (inactive)
67.1 µM (inactive)

Your task in this section: give GI50 for each listed record.
1. CC(C)(Cc1ccccc1)NC1=NCCO1
2. NS(=O)(=O)c1cc(C(=O)O)c(O)c2ccccc12

1: > 100 µM (inactive); 2: > 100 µM (inactive)

====

# Test system: Hs-578T
# assayName: NCI tumour cell line growth inhibition, 48 h
Calls of active or inactive are those of the source. Cut-off read from the data, not from the text of the source: active = GI50 up to about 1.1 µM and inactive = higher.
Hello, when you answer, please use one of the following outcomes: Y for active, N for inactive

| compound | labelValue |
| --- | --- |
| FC(F)(F)c1ccc2c(c1)nc(-c1ccc(Cl)cc1)n2CC1CCCN2CCCCC12 (configuration not stated) | N |
| C1=C(CC2=C[P+](c3ccccc3)(c3ccccc3)C=C(c3ccccc3)O2)OC(c2ccccc2)=C[P+]1(c1ccccc1)c1ccccc1 | Y |
| O=C1/C(=C/c2cccc(Br)c2)CCc2ccccc21 | N |
| O=C1/C(=C/c2cccs2)NC(=S)N1CN1CCCCC1 | N |
| C=CCC1(O)C(=O)OC2C(O)COC21O (configuration not stated) | N |

Recorded call for CN(CCNC(=S)c1cn(C)c2c1ccc1ccccc12)CCNC(=S)c1cn(C)c2c1ccc1ccccc12 ? N

Another compound: CC(O)(/C=C/c1ccccc1)P(=O)(O)c1ccccc1 (configuration not stated) N

====

# Tested on: M14
# assayName: NCI tumour cell line growth inhibition, 48 h
The source made the active and inactive calls. No stated cut-off is given here; in the data, active = GI50 up to about 1.1 µM and inactive = higher.
API: response.call in true (active), false (inactive)

Check out these entries, answers already filled in.
| compound | labelValue |
| --- | --- |
| COCc1nc2c(OC)c(-c3nc4ccc(N5CCN(C)CC5)nc4[nH]3)cc(OC)c2n1C | false |
| CC(C)Oc1c(-c2ccc(F)cc2)c(O)c2c3c1oc(=O)n3C=CC2C (configuration not stated) | false |
| COc1cccc(C2c3cc4c(cc3OC(Nc3ccccc3)C2C)OCO4)c1OC (configuration not stated) | false |

Lab log entry: Cc1cccc(C)c1N1C(=O)C2c3[nH]c4ccccc4c3C3CCC(C(C)(C)C)CC3C2C1=O (configuration not stated) — outcome as called in the assay? false

====

# Test system: CAKI-1
# assayName: NCI tumour cell line growth inhibition, 48 h
Active and inactive are the calls of the source. Rule as the data show it: active = GI50 up to about 1.1 µM and inactive = higher.
I'd appreciate it if you could supply GI50 values for the items below.

Below, 8 compounds whose answers are already recorded.
| compound | GI50 |
| --- | --- |
| O=[N+]([O-])c1ccc(C(Nc2ccccc2)P(c2ccccc2)c2ccccc2)cc1 (centres undefined) | > 100 µM (inactive) |
| Cc1ccc(-c2cc(O)c3nc4ccccc4n3c2)cc1 | > 100 µM (inactive) |
| Cc1cn(C2CC(N=[N+]=[N-])C(COP(=O)(O)OCC3OC(n4cc(F)c(=O)[nH]c4=O)CC3O)O2)c(=O)[nH]c1=O (centres undefined) | 1.32 µM (inactive) |
| Cc1occc1C(=S)Nc1ccc(Cl)c(/C=N/OC(C)C)c1 | 17.3 µM (inactive) |
| CCC/C(Cl)=N\OC(=O)Nc1ccc(Br)cc1 | 4.36 µM (inactive) |
| Cc1ccc(S(=O)(=O)Oc2cc(S(=O)(=O)O)cc3cc(S(=O)(=O)O)cc(N)c23)cc1 | > 100 µM (inactive) |
| Nc1ncnc2c1ncn2[C@@H]1O[C@H](COP(=O)(O)OP(=O)(O)OC[C@H]2O[C@@H](OCCCO)[C@H](O)[C@@H]2O)[C@@H](O)[C@H]1O | 85.9 µM (inactive) |
| CN(C)CCNC(=O)c1cccc2ccc(-c3ccc(-c4ccccc4)cc3)nc12 | 5.13 µM (inactive) |

Now consider a different compound.
Which GI50 value is on record for COc1cc(-c2coc3c(OC)c(OC4OC(CO)C(O)C(O)C4O)c(OC)cc3c2=O)cc(OC)c1C (centres undefined) ? 14.7 µM (inactive)

====

# System: SW-620
# assayName: NCI tumour cell line growth inhibition, 48 h
Calls of active or inactive are those of the source. Rule as the data show it: active = GI50 up to about 1.1 µM and inactive = higher.
Task for the reader: assign each of the following compounds its reported GI50.

| compound | studySystem | GI50 |
| --- | --- | --- |
| O=c1oc2ccccc2n1P(=O)(n1c(=O)oc2ccccc21)n1c(=O)oc2ccccc21 | SW-620 | > 100 µM (inactive) |
| CC1(C)OC2C(CO)OC(n3cnc(N)nc3=O)C2O1 (stereo not drawn) | SW-620 | > 100 µM (inactive) |

The record that follows has no GI50 shown yet.
Consider the compound COc1ccc2c(c1)[n+]([O-])c(-c1ccc([N+](=O)[O-])cc1)c(N)[n+]2[O-] and give its measured GI50. > 100 µM (inactive)

====

# Tested on: NCI-H23
# assayName: NCI tumour cell line growth inhibition, 48 h
Activity calls are given as the source filed them. Rule as the data show it: active = GI50 up to about 1.1 µM and inactive = higher.
measuredMetric: GI50

| molecule | GI50 |
| --- | --- |
| COc1cc(-c2[o+]c3cc(O)cc(OC4OC(CO)C(O)C(O)C4O)c3cc2OC2OC(CO)C(O)C(O)C2O)cc(OC)c1O (stereo not given) | > 100 µM (inactive) |
| CC(C)C1COC(c2ccc3ccccc3c2-c2c(O[Si](C)(C)C(C)(C)C)ccc3ccccc23)=N1 (stereo not given) | 16.3 µM (inactive) |
| COc1ccc(/C=c2\c(=O)[nH]c3nc4ccccc4c(=O)n23)cc1 | 73.8 µM (inactive) |
| CN(CCNC(=S)c1cn(C)c2c1ccc1ccccc12)CCNC(=S)c1cn(C)c2c1ccc1ccccc12 | 48 µM (inactive) |
| Nc1ncnc2c1ncn2[C@@H]1O[C@H](COP(=O)(O)OP(=O)(O)OC[C@H]2O[C@@H](OCCCO)[C@H](O)[C@@H]2O)[C@@H](O)[C@H]1O | > 100 µM (inactive) |
| Cc1nc2c(N)ncnc2o1 | > 100 µM (inactive) |
| Cc1ccc(S(=O)(=O)NC2CCCCO2)cc1 (stereo not given) | > 100 µM (inactive) |
| O=[N+]([O-])C(=C/c1ccccc1)/C(=C\c1ccccc1)[N+](=O)[O-] | 15.2 µM (inactive) |
| CN(CCCNC(=O)c1cn(C)c2c1Cc1ccccc1-2)CCCNC(=O)c1cn(C)c2c1Cc1ccccc1-2 | 14.2 µM (inactive) |

Moving on to another molecule below.
Requested field: GI50. Item: CC1CCc2c(c(CC3CC(=O)NC(=O)C3)nn2-c2ccccc2)C1 (stereo not given) > 100 µM (inactive)
